target.or.system: DNA Seq9 TTAAGGAAGTT
protocol: FP binding assay, DNA Seq9
test.context: Seq 9 TTAAGGAAGTT; 0.5 μM SMN-C2
pKd: −log10 of the molar value.

{"structure.as.smiles": "CCN1CCN(c2ccc3cc(-c4cn5cc(C)nc(C)c5n4)c(=O)oc3c2)C[C@@H]1C", "target.or.system": "DNA Seq9 TTAAGGAAGTT", "pKd": "< 4.00"}

###

target.or.system: RNA Seq18: 1:1 annealed U1 snRNA binding sequence 5′-AUACΨΨACCU and 5′ splice site 5′-GGAGGUAAGUCU
protocol: FP binding assay, dsRNA Seq18 (binding site 1 sequence)
test.context: Seq 18, binding site 1 sequence (dsRNA); 0.5 μM SMN-C2
Procedure: All synthetic DNA and RNA oligomers were purchased from Integrated DNA Technologies and reconstituted in nuclease-free water (Invitrogen #AM9932) at 1 mM. The concentration of the oligonucleotides at ˜0.1 mM was calibrated with the A260 value measured by a NanoDrop ND-1000 (Thermo, Waltham, MA, USA) and the predicted extinction coefficient (http://www.oligoevaluator.com) using Lamber-Beer's Law. […]
pKd: −log10 of the molar value.

{"structure.as.smiles": "CCN1CCN(c2ccc3cc(-c4cn5cc(C)nc(C)c5n4)c(=O)oc3c2)C[C@@H]1C", "pKd": 4.22}
